# Study Target: Trx-6×His-BCL6 (human BCL6 BTB domain covering amino-acid sequence 5-129) (Homo sapiens (Human), UniProt P41182)
# Assay Method Text: HTRF in vitro assay (BCL6 / BCOR-AF633 peptide)
# Assay type: binding
# Assay Conditions: further generated data; 1 nM Trx-6×His-BCL6, 300 nM BCOR-AF633 peptide, 0.5 nM anti-6×His-Terbium cryptate
Attribute Measured: HTRF pIC50

>>> df
                                    compound  attribute_measured  observed_value
 0  C#CCC(C)(O)CCn1c(=O)n(C)c2ccc(Nc3ccnc(Cl)c3C#N)cc21 (stereo not shown) [Example 27a]          HTRF pIC50            5.86
 1  Cn1ccc(-c2ncc(Cl)c(Nc3ccc4c(c3)n(CCC(C)(C)O)c(=O)n4C)n2)n1 [Example 23a]          HTRF pIC50            6.35
 2  CN(C)C(=O)C1CCN(c2ncc(Cl)c(Nc3ccc4c(c3)n(CCC(C)(O)CCO)c(=O)n4C)n2)CC1 (stereo not shown) [Example 15k]          HTRF pIC50            6.27
 3  Cn1c(=O)n(CCC(C)(C)O)c2cc(Nc3cc(N4CCC[C@H]4CO)nc4c(C#N)cnn34)ccc21 [Example 31b]          HTRF pIC50            5.73
 4  CCOC(=O)/C=C/Cn1c(=O)n(CCC(C)(C)O)c2cc(Nc3nc(N4C[C@@H](C)C(F)(F)[C@@H](C)C4)ncc3Cl)ccc21 [Example 38a]          HTRF pIC50            5.53
 5  Cn1c(=O)n(CCC(C)(C)O)c2cc(Nc3nc(-n4cc(C(F)(F)F)cn4)ncc3Cl)ccc21 [Example 20s]          HTRF pIC50            6.26
 6  CC1OC(=O)NC1Cn1c(=O)n(C)c2ccc(Nc3ccnc(Cl)c3C#N)cc21 (stereo not shown)          HTRF pIC50            5.31
 7  Cn1c(=O)n(CCC(C)(C)O)c2cc(Nc3nc(-n4cccn4)ncc3Cl)ccc21 [Example 15m]          HTRF pIC50            6.08
 8  Cn1c(=O)n(CCC(C)(C)O)c2cc(Nc3ccnc(Cl)c3C#N)c(F)cc21 [Example 22f]          HTRF pIC50            5.75
 9  Cn1c(=O)n(CCC(C)(C)O)c2cc(Nc3nc(N4CCC(F)(F)CC4)ncc3Cl)ccc21 [Example 35d]          HTRF pIC50            6.48
10  CCOC(CCn1c(=O)n(C)c2ccc(Nc3ccnc(Cl)c3C#N)cc21)C(=O)OC (stereo not shown) [Example 10c]          HTRF pIC50            5.69
11  COC(=O)C(O)CCn1c(=O)n(C)c2ccc(Nc3ccnc(Cl)c3C#N)cc21 (stereo not shown)          HTRF pIC50            5.97
12  C[C@@H]1CN(c2cc(Nc3ccc4c(c3)n(CCC(C)(C)O)c(=O)n4C)c(Cl)cn2)C[C@H](C)O1 [Example 36b]          HTRF pIC50            5.99
13  Cn1c(=O)n(CCC(C)(C)O)c2cc(Nc3ccnc(Cl)c3C#N)ccc21          HTRF pIC50            6.08
14  Cn1c(=O)n(CCC(C)(C)O)c2cc(Nc3nc(N4CCCC(C#N)C4)ncc3Cl)ccc21 (stereo not shown) [Example 42b]          HTRF pIC50            6.46
15  CCOC(=O)c1cc(Nc2ccc3c(c2)n(CC[C@@H](C)O)c(=O)n3C)c(C#N)c(Cl)n1          HTRF pIC50            5.87
16  Cn1c(=O)n(CC(O)Cn2cccn2)c2cc(Nc3ccnc(Cl)c3C#N)ccc21 (stereo not shown) [Example 10f]          HTRF pIC50            5.48
17  Cn1c(=O)n(CCC(C)(C)O)c2cc(Nc3nc(-n4ncc5ccccc54)ncc3Cl)ccc21 [Example 17b]          HTRF pIC50            6.21
18  Cn1cc2c(n1)CN(c1ncc(Cl)c(Nc3ccc4c(c3)n(CCC(C)(C)O)c(=O)n4C)n1)CC2 [Example 42e]          HTRF pIC50            6.68
19  Cn1c(=O)n(CCC(C)(C)O)c2cc(Nc3ncnc(Cl)c3Cl)ccc21 [Example 22l]          HTRF pIC50            5.64
20  Cn1c(=O)n(CCC(C)(C)O)c2cc(Nc3nc(N4CC5CCC(C4)C5(F)F)ncc3Cl)ccc21 [Example 35s]          HTRF pIC50            6.16
21  Cn1c(=O)n(CCC2(C)CO2)c2cc(Nc3ccnc(Cl)c3C#N)ccc21 (stereo not shown)          HTRF pIC50            5.44
22  C[C@@H]1CN(c2ncc(Cl)c(Nc3cc4c(cc3F)n(C)c(=O)n4CCC(C)(C)O)n2)C[C@H](C)O1 [Example 20p]          HTRF pIC50            6.44
23  Cc1cc(C)n(-c2nc(C)c(Cl)c(Nc3ccc4c(c3)n(CCC(C)(C)O)c(=O)n4C)n2)n1 [Example 15p]          HTRF pIC50            5.82
24  C[C@@H]1CN(C(=O)c2cc(Nc3ccc4c(c3)n(CCC(C)(C)O)c(=O)n4C)c(Cl)cn2)C[C@H](C)C1(F)F [Example 36f]          HTRF pIC50            6.07
25  Cn1c(=O)n(CCC(C)(C)O)c2cc(Nc3nc(N4CCC[C@H]4CO)ncc3Cl)ccc21 [Example 31a]          HTRF pIC50            6.46
26  C[C@@H]1CN(c2ncc(Cl)c(Nc3ccc4c(c3)n(CCC(C)(C)O)c(=O)n4C)n2)C[C@@H]1C [Example 35p]          HTRF pIC50            6.15
27  Cn1c(=O)n(CCC(C)(C)O)c2cc(Nc3ccnc(Cl)c3Cl)ccc21 [Example 29b]          HTRF pIC50            5.88
28  COCC(C)(O)CCn1c(=O)n(C)c2ccc(Nc3nc(-n4nc(C)cc4C)ncc3Cl)cc21 (stereo not shown) [Example 15j]          HTRF pIC50            5.76
29  Cn1c(=O)n(CCC(C)(C)O)c2cc(Nc3nc(N4CCC(C(F)(F)F)CC4)ncc3Cl)ccc21 [Example 35g]          HTRF pIC50            6.12
30  COC(=O)C(C)CCn1c(=O)n(C)c2ccc(Nc3cc(-c4nc(C)no4)nc(Cl)c3C#N)cc21 (stereo not shown)          HTRF pIC50            6.19

====

# Study Target: Trx-6×His-BCL6 (human BCL6 BTB domain covering amino-acid sequence 5-129) (Homo sapiens (Human))
# Assay Method Text: HTRF in vitro assay (BCL6 / BCOR-AF633 peptide)
# Format: binding
# Assay Conditions: initially generated data; 10 nM Trx-6×His-BCL6, 300 nM BCOR-AF633 peptide, 1 nM anti-6×His-Terbium cryptate
Attribute Measured: HTRF pIC50

>>> print(df.to_string())
                                   compound  observed_value
0  CCOC(CCn1c(=O)n(C)c2ccc(Nc3ccnc(Cl)c3C#N)cc21)C(=O)OC (stereo not drawn) [Example 10c]            5.65
1  C[C@@H](O)CCn1c(=O)n(C)c2ccc(Nc3ccnc(Cl)c3Cl)cc21 [Example 1q]            5.49
2  COC(=O)[C@H](N)CCn1c(=O)n(C)c2ccc(Nc3ccnc(Cl)c3C#N)cc21 [Example 12]            5.79

====

# Study Target: Trx-6×His-BCL6 (human BCL6 BTB domain covering amino-acid sequence 5-129) (Homo sapiens (Human))
# Assay Method Text: HTRF in vitro assay (BCL6 / BCOR-AF633 peptide)
# Assay type: binding
# Assay Conditions: further generated data; 1 nM Trx-6×His-BCL6, 300 nM BCOR-AF633 peptide, 0.5 nM anti-6×His-Terbium cryptate; read-out: HTRF pIC50 (converted)
# Experimental: The % inhibition at each concentration was calculated by normalising FRET ratio to the appropriate high (DMSO with all reagents) and low (DMSO without BCL6) controls.
Attribute Measured: IC50 (µM)

Example results:
>>> print(df.to_string())
                                   compound  result_unit  observed_value
0  Cn1c(=O)n(CCC(C)(C)O)c2cc(Nc3cc(N4CCC(F)(F)CC4)ncc3Cl)ccc21 [Example 36a]           µM           0.813
1  C[C@@H]1CN(c2ncc(Cl)c(Nc3ccc4c(c3)n(CCC(C)(C)O)c(=O)n4C)n2)C[C@H](C2CC2)O1 [Example 21a]           µM             0.1

(P) C[C@@H]1CN(c2ncc(Cl)c(Nc3ccc4c(c3)n(CCC(C)(C)O)c(=O)n4CCC(C)(C)O)n2)C[C@H](C)C1(F)F [Example 35j]
(Q) Cn1c(=O)n(CCC(C)(C)O)c2cc(Nc3nc(-c4n[nH]c5ccccc45)ncc3Cl)ccc21 [Example 17a]
input: From the recorded data, which exceeds the other in IC50: P or Q ? Please identify the chosen entry by its label.
output: P
(P: 1.74 µM, Q: 0.537 µM)

meta.source: patent US12110286B2
